target: ligand binding domain of the estrogen receptor alpha chain (ERαLBD) (Homo sapiens); construct: expressed in transfected cells; host or cells: Huh-7 human hepatoma cells, transient transfection with FuGENE 6; assay: ER agonist cell assay (ERα), Huh-7 co-transfection, luciferase; type: cell-based; settings: percent of the maximum estradiol fold change; Huh-7, pG5luc and ERαLBD
Sequence (P03372 311-547 limits assumed): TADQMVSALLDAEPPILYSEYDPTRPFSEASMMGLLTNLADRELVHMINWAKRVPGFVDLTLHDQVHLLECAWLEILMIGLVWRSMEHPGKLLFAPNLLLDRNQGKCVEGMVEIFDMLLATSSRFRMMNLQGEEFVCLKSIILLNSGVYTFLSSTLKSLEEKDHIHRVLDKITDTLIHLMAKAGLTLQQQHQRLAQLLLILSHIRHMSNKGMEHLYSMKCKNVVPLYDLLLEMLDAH
Measurement Kind: ERα % of Max E2 Response (%)

These solved cases illustrate the format of a correct answer.
[[record]]
molecule = "Oc1ccc(-c2noc(C3CC3)c2-c2ccccc2)cc1 [Example 35]"
subject_of_test = "ligand binding domain of the estrogen receptor alpha chain (ERαLBD) (Homo sapiens)"
assay_value = 25

[[record]]
molecule = "OCC1(c2onc(-c3ccc(O)c(F)c3)c2-c2ccccc2)CC1 [Example 98]"
subject_of_test = "ligand binding domain of the estrogen receptor alpha chain (ERαLBD) (Homo sapiens)"
assay_value = 46

[[record]]
molecule = "CC(=O)SCC1(c2onc(-c3ccc(O)cc3)c2-c2ccccc2)CC1 [Example 37]"
subject_of_test = "ligand binding domain of the estrogen receptor alpha chain (ERαLBD) (Homo sapiens)"
assay_value = 30.7

[[record]]
molecule = "CC(C)C(=O)OCC1(c2onc(-c3ccc(O)cc3)c2-c2ccccc2)CC1 [Example 52]"
subject_of_test = "ligand binding domain of the estrogen receptor alpha chain (ERαLBD) (Homo sapiens)"
assay_value = 66

[[record]]
molecule = "Cc1noc(C)c1C(=O)OCC1(c2onc(-c3ccc(O)cc3)c2-c2ccccc2)CC1 [Example 56]"
subject_of_test = "ligand binding domain of the estrogen receptor alpha chain (ERαLBD) (Homo sapiens)"
assay_value = 42.1


(A) CCCC(O)C1(c2onc(-c3ccc(O)cc3)c2-c2ccccc2)CC1 (racemic) [Example 15]
(B) CCCCOC(=O)C1(c2onc(-c3ccc(O)cc3)c2-c2ccccc2)CC1 [Example 94]
(C) CC[C@@H](O)C1(c2onc(-c3ccc(O)cc3)c2-c2ccccc2)CC1 [Example 48]
(D) COCOCC1(c2onc(-c3ccc(O)cc3)c2-c2ccccc2)CC1 [Example 10]
Hi! Can you put these in order of ERα % of Max E2 Response, lowest number first? Record the ranking as a list of labels in the requested order.
D, B, A, C
(D: 15.1%, B: 24.3%, A: 43.8%, C: 88.8%)
